- TEST PROTOCOL: chemical genetic growth profiling, strain panel (AID 1159580);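 further: tested at 20 µM; growth read once vehicle control cultures reached saturation at 30 °C; lower values mean less growth of the strain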
- CONDITIONS USED: S. cerevisiae deletion strains, growth OD, locus YCL069W, strain vba3
The campaign covered roughly 5,500 compounds. About 2,000 (36%) were called active. Inconclusive results (about 18%) are left out. No stated cut-off is given here; in the data, active means normalized growth mostly below about 0.91 (no sharp cut-off); inconclusive means no clear call, values can overlap the other calls; inactive means mostly above about 0.92. The list shows a part of the results.
Possible outcomes: yes = active, no = inactive

                                    compound  class_label
 0             CCCCCC(C)N (stereo not drawn)           no
 1                O=C(O)COc1cc(Cl)c(Cl)cc1Cl           no
 2                            S=C=NCc1ccccc1          yes
 3               COC(=O)COc1cc(Cl)c(Cl)cc1Cl           no
 4           NC(=O)N1c2ccccc2CC(=O)c2ccccc21           no
 5  C[N+](C)(C)CCOP(=O)([O-])OP(=O)(O)OC[C@H]1OC(n2ccc(N)nc2=O)[C@H](O)[C@@H]1O (stereo partly drawn)           no
 6  COc1ccc(C[C@H]2NC[C@H](O)[C@H]2OC(C)=O)cc1          yes
 7      COc1ccc(-c2coc3c(O)c(OC)ccc3c2=O)cc1           no
 8  COc1ccc(-c2coc3c(OC)c(OC)cc(O)c3c2=O)cc1           no
 9      NC(N)=Nc1nc(CSCCC(N)=NS(N)(=O)=O)cs1           no
10                              C[C@@H](N)CO           no
11  CCCCCCCC/C=C/CCCCCCCCOP(=O)([O-])OCC[N+](C)(C)C          yes
12  CCCCCCCCCCCCCCCCOP(=O)([O-])OCC[N+](C)(C)C          yes
